Kindly state log10(IC50) for each of the entries shown.
system_tested: O-acyltransferase (Oryctolagus cuniculus)
Sequence (G1SFD9 1-524): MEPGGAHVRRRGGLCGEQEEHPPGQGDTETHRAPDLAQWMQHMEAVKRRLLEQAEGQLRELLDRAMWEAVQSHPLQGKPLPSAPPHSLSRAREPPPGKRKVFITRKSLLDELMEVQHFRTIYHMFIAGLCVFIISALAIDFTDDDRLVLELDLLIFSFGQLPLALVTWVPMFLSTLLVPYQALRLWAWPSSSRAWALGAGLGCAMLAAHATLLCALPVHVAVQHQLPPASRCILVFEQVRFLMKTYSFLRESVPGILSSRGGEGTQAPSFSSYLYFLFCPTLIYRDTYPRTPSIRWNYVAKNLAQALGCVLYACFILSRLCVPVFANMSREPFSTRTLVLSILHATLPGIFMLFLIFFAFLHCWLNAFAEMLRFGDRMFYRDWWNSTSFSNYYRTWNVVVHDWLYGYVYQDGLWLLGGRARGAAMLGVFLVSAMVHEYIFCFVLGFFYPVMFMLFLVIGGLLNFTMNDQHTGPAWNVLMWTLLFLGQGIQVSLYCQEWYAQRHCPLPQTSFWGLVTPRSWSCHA
assay_method_text: In vitro Acyl coenzyme A:cholesterol acyltransferase inhibitory activity (IAI) was determined by measuring the incorporation of [1-14C]oleolyl-CoA into cholesterol esters by intestinal microsomes isolated from cholesterol-fed rabbits
// stored as log10 of IC50 expressed in nM

# map each compound to its log10(IC50)
1. CCCCC(C)(C)OC(=O)NC(=O)Oc1c(C(C)C)cccc1C(C)C
2. CC(C)c1cccc(C(C)C)c1NC(=O)NC(=O)N1c2ccccc2Sc2ccccc21
3. CCCCCCCCCCOC(=O)NC(=O)Oc1c(C(C)C)cccc1C(C)C
4. CC(C)c1cccc(C(C)C)c1OC(=O)NC(=O)Oc1ccccc1
5. CCCCCCCCCCCCCCN(C)C(=O)NC(=O)Nc1c(C(C)C)cccc1C(C)C
6. CC(C)c1cccc(C(C)C)c1OC(=O)NC(=O)Oc1cccc2ccccc12
7. CC(C)c1cccc(C(C)C)c1OC(=O)NC(=O)SC1CCCCC1

1: 1.81; 2: 3.28; 3: 1.87; 4: 3.26; 5: 3.23; 6: 3.57; 7: 1.99

Kindly give each listed record's log10(IC50).
1. CC(C)c1cccc(C(C)C)c1OC(=O)NC(=O)SCc1ccc(Cl)cc1
2. CC(C)c1cccc(C(C)C)c1OC(=O)NC(=O)SCCc1ccccc1
3. CCCCCCCCCCCCC(C)(C)OC(=O)NC(=O)Nc1c(C(C)C)cccc1C(C)C
4. CCCCN(CCCC)C(=O)NC(=O)Nc1c(C(C)C)cccc1C(C)C
5. CC(C)c1cccc(C(C)C)c1OC(=O)NC(=O)OCc1ccccc1
6. CC(C)c1cccc(C(C)C)c1NC(=O)NC(=O)N1c2ccccc2Cc2ccccc21
7. CC(C)c1cccc(C(C)C)c1OC(=O)NC(=O)Sc1c(C(C)C)cccc1C(C)C

2.20
2.94
1.81
2.40
1.89
2.95
3.51

====

system_tested: O-acyltransferase (Oryctolagus cuniculus)
assay_method_text: In vitro Acyl coenzyme A:cholesterol acyltransferase inhibitory activity (IAI) was determined by measuring the incorporation of [1-14C]oleolyl-CoA into cholesterol esters by intestinal microsomes isolated from cholesterol-fed rabbits
Provide the reported IC50 of each item.

{"molecule": "CCCCCCCCCCSC(=O)NC(=O)Oc1c(C(C)C)cccc1C(C)C", "IC50": "130 nM"}
{"molecule": "CCCCCCCCN(CCCCCCCC)C(=O)NC(=O)Nc1c(C(C)C)cccc1C(C)C", "IC50": "350 nM"}
{"molecule": "CCCCCCCCCCCCCCC(C)OC(=O)NC(=O)Nc1c(C(C)C)cccc1C(C)C (stereo unspecified)", "IC50": "6800 nM"}
{"molecule": "Cc1cccc(C)c1OC(=O)NC(=O)Oc1c(C)cccc1C", "IC50": "> 5000 nM"}
{"molecule": "CCCCCCCC(C)OC(=O)NC(=O)Nc1c(C(C)C)cccc1C(C)C (stereo unspecified)", "IC50": "390 nM"}
{"molecule": "COC(=O)C(OC(=O)NC(=O)Oc1c(C(C)C)cccc1C(C)C)c1ccccc1 (stereo unspecified)", "IC50": "940 nM"}
{"molecule": "CCCCCCCCCCCCOC(=O)NC(=O)Nc1c(C(C)C)cccc1C(C)C", "IC50": "120 nM"}
{"molecule": "CC(C)c1cccc(C(C)C)c1NC(=O)NC(=O)N(c1ccccc1)c1ccccc1", "IC50": "340 nM"}

Batch request: IC50 per item, same order as input.
1. CC(C)c1cccc(C(C)C)c1OC(=O)NC(=O)SCc1ccco1
2. CC(C)c1cccc(C(C)C)c1NC(=O)NC(=O)N1CCC(c2ccccc2)CC1
3. CCCCCCCCCCCCC(C)OC(=O)N(C)C(=O)Oc1c(C(C)C)cccc1C(C)C (racemic)
4. CC(C)c1cccc(C(C)C)c1OC(=O)NC(=O)Oc1c(C(C)C)cccc1C(C)C

1. 470 nM
2. 890 nM
3. > 1000 nM
4. 110 nM

// each molecule listed below needs its IC50
1. CCCCCCCCCCCCSC(=O)NC(=O)Oc1c(C(C)C)cccc1C(C)C
2. CC(C)(C)c1cccc(C(C)(C)C)c1OC(=O)NC(=O)Oc1c(C(C)(C)C)cccc1C(C)(C)C
3. CC(C)c1cccc(C(C)C)c1OC(=O)NC(=O)SCc1ccccc1
4. CC(C)c1cccc(C(C)C)c1OC(=O)NC(=O)OCCCc1ccccc1
5. CCCCCCCCCCCCCCC(C)OC(=O)NC(=O)Oc1c(C(C)C)cccc1C(C)C (racemic)

["16 nM", "1200 nM", "440 nM", "660 nM", "58 nM"]
